B1: EHEE_rd4_0726 (parent)
chain: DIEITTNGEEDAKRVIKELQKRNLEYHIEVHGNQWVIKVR

- Variants of: B1
- protocol: folding stability dG (cDNA display proteolysis); higher = more stable
- measurement-context: PBS, room temperature
quantity-measured: folding stability dG
Note to self: number, then unit, no commentary.

The examples below pair each entry with its known result.
- mutation-id: "K13V"
  quantity-measured: "folding stability dG"
  endpoint-value: "2.12 kcal/mol"
- mutation-id: "V30Y"
  quantity-measured: "folding stability dG"
  endpoint-value: "2.12 kcal/mol"
- mutation-id: "N33E"
  quantity-measured: "folding stability dG"
  endpoint-value: "2.16 kcal/mol"
- mutation-id: "E29L"
  quantity-measured: "folding stability dG"
  endpoint-value: "1.91 kcal/mol"

List folding stability dG for every entry below, keeping the order given.
1. K21Y
2. N33M
3. E29M
4. E25W
5. E10H
6. G32S

Output:
1: 2.08 kcal/mol; 2: 1.97 kcal/mol; 3: 1.93 kcal/mol; 4: 2.52 kcal/mol; 5: 2.02 kcal/mol; 6: 1.21 kcal/mol

List folding stability dG for every entry below, keeping the order given.
1. V15S
2. L24V
3. I37M

Output:
0.278 kcal/mol
2.19 kcal/mol
0.481 kcal/mol
